target: plasma purified human complement protein C3 (human) (UniProt P01024); assay: cell-based or functional assay
Sequence (P01024 23-667, chain 1 of 2): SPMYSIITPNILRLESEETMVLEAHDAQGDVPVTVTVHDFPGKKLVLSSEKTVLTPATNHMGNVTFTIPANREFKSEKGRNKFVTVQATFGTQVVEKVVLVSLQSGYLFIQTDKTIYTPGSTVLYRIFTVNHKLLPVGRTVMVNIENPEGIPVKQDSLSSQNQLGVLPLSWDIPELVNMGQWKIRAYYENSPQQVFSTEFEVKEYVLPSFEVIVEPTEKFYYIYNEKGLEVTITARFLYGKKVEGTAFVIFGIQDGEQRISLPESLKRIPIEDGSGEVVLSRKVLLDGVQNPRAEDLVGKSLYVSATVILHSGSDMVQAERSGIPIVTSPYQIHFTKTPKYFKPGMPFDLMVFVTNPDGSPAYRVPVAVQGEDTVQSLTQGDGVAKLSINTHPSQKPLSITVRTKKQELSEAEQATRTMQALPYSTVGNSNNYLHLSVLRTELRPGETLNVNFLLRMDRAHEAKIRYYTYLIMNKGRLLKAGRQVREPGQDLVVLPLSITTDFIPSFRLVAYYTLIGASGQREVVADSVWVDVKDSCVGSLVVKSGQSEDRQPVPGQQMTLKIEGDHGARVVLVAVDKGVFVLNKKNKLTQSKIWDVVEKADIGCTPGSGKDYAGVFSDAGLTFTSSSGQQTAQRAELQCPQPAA
Sequence (P01024 672-1663, chain 2 of 2): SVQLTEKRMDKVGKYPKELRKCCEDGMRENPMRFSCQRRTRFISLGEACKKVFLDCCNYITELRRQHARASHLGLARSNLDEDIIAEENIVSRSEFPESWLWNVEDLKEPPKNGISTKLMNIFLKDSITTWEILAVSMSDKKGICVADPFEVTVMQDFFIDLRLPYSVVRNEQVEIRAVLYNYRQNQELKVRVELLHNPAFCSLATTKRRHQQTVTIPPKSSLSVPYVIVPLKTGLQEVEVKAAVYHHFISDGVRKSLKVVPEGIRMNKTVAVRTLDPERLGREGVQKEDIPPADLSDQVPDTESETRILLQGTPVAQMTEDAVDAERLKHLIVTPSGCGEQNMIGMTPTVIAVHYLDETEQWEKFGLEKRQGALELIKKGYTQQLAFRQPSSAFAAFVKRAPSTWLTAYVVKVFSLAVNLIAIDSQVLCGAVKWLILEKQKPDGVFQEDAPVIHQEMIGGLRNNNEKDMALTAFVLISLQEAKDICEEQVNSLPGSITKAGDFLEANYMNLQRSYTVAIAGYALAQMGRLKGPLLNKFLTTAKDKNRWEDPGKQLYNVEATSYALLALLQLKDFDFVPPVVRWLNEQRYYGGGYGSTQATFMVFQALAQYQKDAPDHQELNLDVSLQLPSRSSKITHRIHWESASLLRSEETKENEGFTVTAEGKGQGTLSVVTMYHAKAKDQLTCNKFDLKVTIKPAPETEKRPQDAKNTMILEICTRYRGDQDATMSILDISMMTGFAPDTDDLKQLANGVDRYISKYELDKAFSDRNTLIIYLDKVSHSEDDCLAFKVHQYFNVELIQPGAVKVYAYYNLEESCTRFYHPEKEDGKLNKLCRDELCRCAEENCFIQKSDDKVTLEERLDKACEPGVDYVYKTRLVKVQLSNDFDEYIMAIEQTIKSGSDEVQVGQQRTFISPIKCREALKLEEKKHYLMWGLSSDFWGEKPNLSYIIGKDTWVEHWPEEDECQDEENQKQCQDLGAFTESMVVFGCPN
Reported EC50 hC3 cleavage values for a set of binders
Give the quantity in nM, number only.

>  <BINDER>
MTSP-1 protease domain Q38H/I41A/D60bV/F60eR/Y60gW/F97D/F99L/C122S/G151H/Q175L/Q192D (enzyme) VVGGTDADEGEWPWQVSLHALGHGHACGASLISPNWLVSAAHCYIDVRGRRWSDPTQWTAFLGLHDQSQRSAPGVQERRLKRIISHPFFNDDTLDYDIALLELEKPAEYSSMVRPISLPDASHVFPAGKAIWVTGWGHTQYGGTHALILQKGEIRVINQTTCENLLPQLITPRMMCVGFLSGGVDSCDGDSGGPLSSVEADGRIFQAGVVSWGDGCAQRNKPGVYTRLPLFRDWIKENTGV

>  <OBSERVED VALUE>
3.72

$$$$
>  <BINDER>
MTSP-1 protease domain I41D/C122S/G151N/Q192T/D217E (enzyme) VVGGTDADEGEWPWQVSLHALGQGHDCGASLISPNWLVSAAHCYIDDRGFRYSDPTQWTAFLGLHDQSQRSAPGVQERRLKRIISHPFFNDFTFDYDIALLELEKPAEYSSMVRPISLPDASHVFPAGKAIWVTGWGHTQYGGTNALILQKGEIRVINQTTCENLLPQQITPRMMCVGFLSGGVDSCTGDSGGPLSSVEADGRIFQAGVVSWGEGCAQRNKPGVYTRLPLFRDWIKENTGV

>  <OBSERVED VALUE>
34.2

$$$$
>  <BINDER>
MTSP-1 protease domain I41E/F97S/F99L/C122S/Q175L/Q192V/D217A (enzyme) VVGGTDADEGEWPWQVSLHALGQGHECGASLISPNWLVSAAHCYIDDRGFRYSDPTQWTAFLGLHDQSQRSAPGVQERRLKRIISHPFFNDSTLDYDIALLELEKPAEYSSMVRPISLPDASHVFPAGKAIWVTGWGHTQYGGTGALILQKGEIRVINQTTCENLLPQLITPRMMCVGFLSGGVDSCVGDSGGPLSSVEADGRIFQAGVVSWGAGCAQRNKPGVYTRLPLFRDWIKENTGV

>  <OBSERVED VALUE>
89.9

$$$$

Inquiry: Read the entry MTSP-1 protease domain I41G/F99L/C122S/G151N/Q175R/Q192A (enzyme) VVGGTDADEGEWPWQVSLHALGQGHGCGASLISPNWLVSAAHCYIDDRGFRYSDPTQWTAFLGLHDQSQRSAPGVQERRLKRIISHPFFNDFTLDYDIALLELEKPAEYSSMVRPISLPDASHVFPAGKAIWVTGWGHTQYGGTNALILQKGEIRVINQTTCENLLPQRITPRMMCVGFLSGGVDSCAGDSGGPLSSVEADGRIFQAGVVSWGDGCAQRNKPGVYTRLPLFRDWIKENTGV and write its reported EC50 hC3 cleavage.
Reply text: 74.5

Inquiry: Read the entry MTSP-1 protease domain I41E/F99L/C122S/G151N/Q192S (enzyme) VVGGTDADEGEWPWQVSLHALGQGHECGASLISPNWLVSAAHCYIDDRGFRYSDPTQWTAFLGLHDQSQRSAPGVQERRLKRIISHPFFNDFTLDYDIALLELEKPAEYSSMVRPISLPDASHVFPAGKAIWVTGWGHTQYGGTNALILQKGEIRVINQTTCENLLPQQITPRMMCVGFLSGGVDSCSGDSGGPLSSVEADGRIFQAGVVSWGDGCAQRNKPGVYTRLPLFRDWIKENTGV and write its reported EC50 hC3 cleavage.
Reply text: 112
